Tested on: LXRb:RXRa (NR concentration 270 nM, RXRa partner concentration 90 nM)
method notes: PBM binding z-score (relative to random genomic background probes); higher = stronger binding; sequences stand for … in GC…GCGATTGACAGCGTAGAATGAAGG
parameter: PBM binding z-score
# respond with the number and nothing more

| residue codes | parameter | observed measurement |
| --- | --- | --- |
| TCTTTTAGTTGAAGGGCAACCGACGAGTCCGTTT | PBM binding z-score | 1 |
| CCTGCTAGCTCAATGGTCAGCTAAAGCAGCTCGC | PBM binding z-score | -0.457 |
| ACTAGTTGGTCAGCTGAGGGCACACACAATTCGG | PBM binding z-score | 0.183 |
| TTACCAAGGTGAGCGGAGGTCGTTGATCCAACTC | PBM binding z-score | 0.829 |
| TCGAGTAGGGTAGTCGGGGCATTCAGCCAACATA | PBM binding z-score | 0.0407 |

Turning now to a further sequence:
### Prompt Data request, read-out PBM binding z-score, for CAAACTAGGTCACGGTCAAAGTCGGTTTGTGCCA
### Response 3.13

Source: the supplement of paper PMC6555819
